Recorded values, source the supplement of paper PMC10899765.

- Test system: MCF10A
- test.details: percent viability (nuclei count relative to siNT); higher = more viable cells
- experimental.parameters: 20 nM; 72 h
Doc: threshold 50% (exclusive). Items with percent viability beneath it return YES; others return NO.

Input line: Threshold test, percent viability < 50%: AGGUUACCCGAGCAACUUUGCAU [hsa-miR-409-5p]
Output line: YES

Input line: One more sequence: AAGGGAAGAUGGUGACCAC [hsa-miR-9500]
Output line: YES

Input line: One more sequence: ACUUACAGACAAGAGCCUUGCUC [hsa-miR-600]
Output line: NO

Input line: One more sequence: UGUGGACAGUGAGGUAGAGGGAGU [hsa-miR-3138]
Output line: YES

Input line: One more sequence: GAUUGAGACUAGUAGGGCUAGGC [hsa-miR-4461]
Output line: YES

Input line: One more sequence: CCUCCAAAGGGAAGCGCUUUCUGUU [hsa-miR-519d-5p]
Output line: NO

Input line: One more sequence: AUCUGACCUGAUGAAGGU [hsa-miR-4256]
Output line: YES

Input line: One more sequence: UGUCACCCGCUCCUUGCCCAG [hsa-miR-6879-3p]
Output line: YES

Input line: One more sequence: ACAGGCGGCUGUAGCAAUGGGGG [hsa-miR-3937]
Output line: YES

Input line: One more sequence: UGGUCUGUCUCUGCCCUGGCAC [hsa-miR-6753-3p]
Output line: YES

Input line: One more sequence: UGGCGGCGGUAGUUAUGGGCUU [hsa-miR-4467]
Output line: YES

Input line: One more sequence: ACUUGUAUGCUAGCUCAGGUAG [hsa-miR-643]
Output line: NO

Input line: One more sequence: UGAGUGAUUGAUAGCUAUGUUC [hsa-miR-4765]
Output line: NO

Input line: One more sequence: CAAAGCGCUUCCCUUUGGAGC [hsa-miR-518d-3p]
Output line: YES

Input line: One more sequence: AAAGGUAAUUGCAGUUUUUCCC [hsa-miR-548ai]
Output line: NO

Input line: One more sequence: CCCAAUACACGGUCGACCUCUU [hsa-miR-323b-3p]
Output line: NO

Input line: One more sequence: UGUUGGGAUUCAGCAGGACCAU [hsa-miR-4425]
Output line: YES

Input line: One more sequence: AGCCGCGGGGAUCGCCGAGGG [hsa-miR-3648]
Output line: NO
